meta.source: patent US5885987A

Biological target: LTD4 receptor (Cavia porcellus)
Construct: guinea pig pulmomembranous protein; from tissue; host or cells: guinea pig lung membranes
Sequence (Q2NNR5 1-340): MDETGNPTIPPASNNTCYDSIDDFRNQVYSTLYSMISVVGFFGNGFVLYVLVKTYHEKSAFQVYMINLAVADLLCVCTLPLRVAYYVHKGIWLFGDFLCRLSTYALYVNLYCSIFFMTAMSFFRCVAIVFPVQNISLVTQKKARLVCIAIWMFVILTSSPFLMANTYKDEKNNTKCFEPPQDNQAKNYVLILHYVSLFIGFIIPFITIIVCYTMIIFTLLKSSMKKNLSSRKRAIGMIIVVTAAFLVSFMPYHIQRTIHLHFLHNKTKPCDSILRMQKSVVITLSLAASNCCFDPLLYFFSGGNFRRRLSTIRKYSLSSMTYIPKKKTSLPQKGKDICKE
Assay: LTD4 receptor binding inhibition test ([^3 H]leukotriene D4, guinea pig pulmomembranous protein)
Details: read-out: LTD4 receptor, dissociation constant KD
Recorded pKd by entry
Here pKd is given on a logarithmic scale as minus log10 of the concentration in mol/L.

As a guide, the following entries are already answered.
Cc1ccc(OCc2cccc(OCc3nc4ccccc4n3C)c2)c2c1NC(=O)C2(C)C
6.69
Cc1ccc(OCc2ccc(OCc3ccc4ccccc4n3)cc2)c2cc(-c3nn[nH]n3)c(=O)[nH]c12
6.52
O=C1CSc2cc(OCc3ccc(OCc4ccc5ccccc5n4)cc3)ccc2N1
3.26
O=C1CSc2cc(OCc3cccc(OCc4ccc5ccccc5n4)c3)ccc2N1
7.90
N#Cc1cc2cc(OCc3cccc(OCc4ccc5ccccc5n4)c3)ccc2[nH]c1=O
6.93

Okay, now this compound:
Find the measured pKd: item `Cc1ccc(OCc2cccc(OCc3ccc4ccccc4n3)c2)c2c1NC(=S)C2(C)C` , target or system LTD4 receptor (Cavia porcellus).
4.40
